Where these numbers come from: ChEMBL document CHEMBL4888484

Tested on: Plasmodium falciparum
experimental_details: Primary screen in NF54 nanoGlo assay, in single point, at 2uM, 72h; a lower Z score goes with more inhibition
Type: functional, Erythrocyte
experimental_setup: timepoint 72 hour
Out of some 150,000 compounds screened, about 540 (0.36%) showed an effect of 50% or more. This excerpt belongs to a sample that is enriched for strong results.
Answer each item with its documented Z score.

For each of the items listed, what is its Z score?
1. CN1CCC(Oc2nc3ccc(F)cc3o2)CC1
2. CC(C)CC[C@@H](CCNC1CCN(C)CC1)c1ccc(Cl)cc1
3. Cc1cc(F)ccc1C(=O)NCc1nnc(C)n1C1CC1
4. CCN1CCN(c2cccc(NC(=O)c3cc(F)cc4c(=O)c5cc(F)ccc5[nH]c34)c2)CC1
5. N#Cc1cccc(S(=O)(=O)N2CCCCCCC2)c1
6. CC(Cc1ccccc1Cl)C(=O)NC1CCN(C(=O)Nc2ccccc2)C1 (configuration not stated)
7. Cc1ccc(CC(=O)Nc2cc(C(F)(F)F)n(C)n2)cn1
8. CC(C)CC[C@@H](CCN1CCCC1)c1ccc(OC(C)C)cc1

Out:
[1.44, -7.69, 0.34, -17.54, -0.83, 0.11, 0.61, -0.36]

For each of the items listed, what is its Z score?
1. CC1CN(C(=O)c2cc(F)cc3c(=O)c4cc(F)ccc4[nH]c23)CC(C)O1 (configuration not stated)
2. COc1ccc2cc(-c3nc(CCN(C)C(=O)c4cccc(Cl)c4)no3)[nH]c2c1
3. CC(C)CC[C@@H](CCNCc1ccccn1)c1ccc(Cl)cc1
4. O=C(Cn1cc(-c2ccccc2)ncc1=O)NC[C@@H]1CCCN2CCCC[C@H]12
5. Cc1ccc(S(=O)(=O)c2cn(CC(=O)Nc3ccc(C)c(C)c3)c3nc(C)ccc3c2=O)cc1
6. O=c1nc2n(nc1-c1ccc(F)cc1)C1(CCCC1)Nc1ccccc1-2

Out:
[1.65, 1.75, -3.14, 0.97, 1.24, 0.98]
